- System: H358 cells
- experiment: Antiproliferative activity against H358 cells (Cell Titer Glow, ultra-low attachment plate)
- Type: cell-based
- test settings: Homo sapiens, NCI-H358, 72 h, three days after addition of compound
Quick reference for IC50 among some compounds

C=CC(=O)N1CC2(CCN(c3nc(N4CC5(C4)CC(F)(F)CN5CC)nc4c(OCC(F)(F)F)c(-c5c(C)ccc6[nH]ncc56)c(C5CC5)cc34)CC2)C1; < 300 nM
C=CC(=O)N1CC2(CCN(c3nc(N4CC5(CCCN5C(C)C)C4)nc4c(OCC(F)(F)F)c(-c5c(C)ccc6[nH]ncc56)c(C5CC5)cc34)CC2)C1; < 300 nM
C=CC(=O)N1CC2(CCN(c3nc(N4CC(N5CC[C@H](O)C5)C4)nc4c(OCC(F)(F)F)c(-c5c(C)ccc6[nH]ncc56)c(C5CC5)cc34)CC2)C1; < 300 nM
C=CC(=O)N1CC2(CCN(c3nc(N4CCC(N5CC6(CC6)C5)C4)nc4c(OCC(F)(F)F)c(-c5c(C)ccc6[nH]ncc56)c(C5CC5)cc34)CC2)C1 (centres unmarked); < 300 nM

Query: Consider the compound `C=CC(=O)N1CC2(CCN(c3nc(O[C@H]4C[C@H](N5CCCC5)C4)nc4c(OCC(F)(F)F)c(-c5c(C)ccc6[nH]ncc56)c(C5CC5)cc34)CC2)C1` . State its measured IC50.
Result: 300 to 1000 nM
